The measured values listed here are drawn from paper PMC11212260.

Target: Ae. aegypti NPYLR7 (Aedes aegypti, UniProt U5N1H5)
Sequence (U5N1H5 entry or part of it): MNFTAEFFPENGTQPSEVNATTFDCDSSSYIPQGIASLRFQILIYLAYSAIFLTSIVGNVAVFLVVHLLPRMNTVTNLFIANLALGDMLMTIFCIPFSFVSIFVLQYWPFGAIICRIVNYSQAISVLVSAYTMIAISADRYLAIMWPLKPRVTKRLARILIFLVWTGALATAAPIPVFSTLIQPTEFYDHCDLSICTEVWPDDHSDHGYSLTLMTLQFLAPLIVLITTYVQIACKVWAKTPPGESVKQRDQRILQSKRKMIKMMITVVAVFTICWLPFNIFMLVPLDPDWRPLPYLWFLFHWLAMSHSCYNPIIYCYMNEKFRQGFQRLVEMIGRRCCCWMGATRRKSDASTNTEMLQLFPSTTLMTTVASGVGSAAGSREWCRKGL
Experiment: In vitro calcium (GCaMP6s) FLIPR assay in HEK293T cells transfected with NPYLR7
Format: cell-based
Conditions: relative EC50, percent effect relative to 10 μM FMRFa3; read-out: EC50
Measurement kind: pEC50
Scale note: pEC50 = -log10(concentration in M).

COc1cc2c(C)nc(NC(=N)N)nc2cc1OCc1ccccc1    7.26
CCOc1cc2c(C)nc(NC(=N)N)nc2cc1OCc1ccccc1    5.07
Cc1nc(NC(=N)N)nc2cc(OC(F)F)ccc12    5.79

Now turn to the next compound.
The reported pEC50 of the compound Cc1nc(NC(=N)N)nc2cc(OCc3cnccn3)ccc12 was 5.21
